This listing pairs compounds with measured CC100.
System: BHK-21
method summary: Cytotoxicity against golden hamster BHK-21 cells measured after 6 days by MTT assay
Format: toxicity, cell-based, Mesocricetus auratus
cond: bhk-21, 144 h, time 6 day

- smiles entry: "COC(=O)[C@]1(C)CCC[C@]2(C)c3ccc(C(C)C)c(O)c3CC[C@@H]12"
  CC100: "> 25 µg/mL"
- smiles entry: "CC(C)c1cc2c(cc1O)[C@@]1(C)CCC[C@](C)(C(=O)O)[C@@H]1CC2"
  CC100: "> 50 µg/mL"
- smiles entry: "NC(=O)c1ncn([C@@H]2O[C@H](CO)[C@@H](O)[C@H]2O)n1"
  CC100: "> 160 µg/mL"
